Let's look at some molecules and their measured concentration at 6 h.
- ASSAY PROCEDURE: Pharmacokinetics and total colon distribution after single oral administration
- Type: in vivo, male C57BL/6 mice
- CONDITION SUMMARY: male, C57BL/6, mouse, total colon tissue; mice, oral 5 mg/kg, 6 h; measured cpd = dosed cpd (1, 19, 47 as Na salt, 44 as NH4+ salt); read-out: total colon level
Write the answer as a number in ng/g, unit excluded.

Quick one: concentration at 6 h of COc1cc(Nc2cc(Oc3ccc(NC(=O)Nc4cc(C(C)(C)C)cc(NS(C)(=O)=O)c4OC)c4ccccc34)ccn2)ccc1P(C)(=O)O ?
450

Continuing:
Fill in: concentration at 6 h of COc1cc(Nc2cc(Oc3ccc(NC(=O)Nc4cc(C(C)(C)C)cc(NS(C)(=O)=O)c4OC)c4ccccc34)ccn2)cc(OC)c1C(=O)NCCOCCOCCOP(=O)(O)O is ___
0
